Tested on: 966289-007-R4-J1-PDC complex spheroid viability;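 note: spheroids exposed to the agents for seven days before readout; percent viability relative to DMSO vehicle control wells taken as 100%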
PROCEDURE DETAILS: Anticancer human tumor 966289-007-R4-J1-PDC patient-derived pancreatic adenocarcinoma cell line growth inhibition [GQUAD]
EXPERIMENTAL SETUP: second compound 0.316 µM; first compound 10 µM; stronger effect = lower value
From the text: DNA G-quadruplex Stabilizer Agents in Combinations in Complex Spheroids A high-throughput screen of multi-cell type tumor spheroids was designed to identify active combinations of DNA G-quadruplex stabilizer agents and targeted small molecules. […] Compounds. […] If the clinical Cmax for an agent had not been determined, the highest concentration tested was 10 microM. […]
VALUE TYPE: viability, T/C (%)
The reply should be a number in %, with the unit left off.

| COMPOUND | viability, T/C (%) |
| --- | --- |
| COc1cccc2c1C(=O)c1c(O)c3c(c(O)c1C2=O)CC(O)(C(=O)CO)CC3OC1CC(N)C(O)C(C)O1 (stereo unspecified) + Cc1[nH]c2ccc(F)cc2c1-c1nc2c3cccnc3c3ncccc3c2[nH]1 | 0.33 |

What value of viability, T/C has been reported for the following compound? Cc1cccc(N(C)C(=O)C2C(O)CCN2c2nc(C)cc(C(F)(F)F)c2C#N)c1 (stereo unspecified) + Cc1cnc(CNC(=O)c2c(=O)c3ccc(N4CCCN(C)CC4)nc3n3c2sc2ccccc23)cn1
13.3

What value of viability, T/C has been reported for the following compound? CC1COCCN1c1cc(-c2ccnn2C)c2ccnc(-c3ccn[nH]3)c2n1 (stereo unspecified) + Cc1[nH]c2ccc(F)cc2c1-c1nc2c3cccnc3c3ncccc3c2[nH]1
3.06

What value of viability, T/C has been reported for the following compound? COc1ccc([C@@H](O)c2cc(-c3ncnc4cc(N5CCOCC5)ccc34)c(F)cc2Cl)nn1 + Cc1cnc(CNC(=O)c2c(=O)c3ccc(N4CCCN(C)CC4)nc3n3c2sc2ccccc23)cn1
10.4

What value of viability, T/C has been reported for the following compound? CCCS(=O)(=O)Nc1ccc(F)c(C(=O)c2c[nH]c3ncc(-c4ccc(Cl)cc4)cc23)c1F + Cc1[nH]c2ccc(F)cc2c1-c1nc2c3cccnc3c3ncccc3c2[nH]1
39.3

What value of viability, T/C has been reported for the following compound? Nc1ccn(C2OC(CO)C(O)C2(F)F)c(=O)n1 (stereo unspecified) + CN(C)c1ccc(Nc2c3ccc(NC(=O)CCN4CCCC4)cc3nc3cc(NC(=O)CCN4CCCC4)ccc23)cc1
0.93

What value of viability, T/C has been reported for the following compound? CC1COCCN1c1cc(C2(O)CC3CCC(C2)O3)c2cnn(-c3ccn[nH]3)c2n1 (stereo unspecified) + Cc1[nH]c2ccc(F)cc2c1-c1nc2c3cccnc3c3ncccc3c2[nH]1
4.84

What value of viability, T/C has been reported for the following compound? C=CC(=O)N1CCN(c2nc(=O)n(-c3c(C)ccnc3C(C)C)c3nc(-c4c(O)cccc4F)c(F)cc23)C(C)C1 (stereo unspecified) + Cc1[nH]c2ccc(F)cc2c1-c1nc2c3cccnc3c3ncccc3c2[nH]1
111

What value of viability, T/C has been reported for the following compound? Cc1cccc(N(C)C(=O)C2C(O)CCN2c2nc(C)cc(C(F)(F)F)c2C#N)c1 (stereo unspecified) + CN(C)c1ccc(Nc2c3ccc(NC(=O)CCN4CCCC4)cc3nc3cc(NC(=O)CCN4CCCC4)ccc23)cc1
100

What value of viability, T/C has been reported for the following compound? CC1COCCN1c1cc(-c2ccnn2C)c2ccnc(-c3ccn[nH]3)c2n1 (stereo unspecified) + Cc1cnc(CNC(=O)c2c(=O)c3ccc(N4CCCN(C)CC4)nc3n3c2sc2ccccc23)cn1
3.35

What value of viability, T/C has been reported for the following compound? CCCS(=O)(=O)Nc1ccc(F)c(C(=O)c2c[nH]c3ncc(-c4ccc(Cl)cc4)cc23)c1F + CN(C)c1ccc(Nc2c3ccc(NC(=O)CCN4CCCC4)cc3nc3cc(NC(=O)CCN4CCCC4)ccc23)cc1
31.8

Every entry's value here was drawn from PubChem BioAssay AID2060488.
